tested on: PPARg:RXRa 90nM:30nM, anti-RXR (NR concentration 90 nM, RXRa partner concentration 30 nM); assay: PBM binding z-score (relative to random genomic background probes); higher = stronger binding; sequences stand for … in GC…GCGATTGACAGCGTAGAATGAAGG
# PBM binding z-score >= 2 gives MET, anything below gives NOT MET

Consider the following illustrative entries.
                   construct_sequence                              study_target  label
0  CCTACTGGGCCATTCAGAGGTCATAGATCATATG  PPARg:RXRa 90nM:30nM, anti-RXR (NR concentration 90 nM, RXRa partner concentration 30 nM)    MET
1  TAGCCTAGGTCATGGCCCAGTATACCACGCGAAC  PPARg:RXRa 90nM:30nM, anti-RXR (NR concentration 90 nM, RXRa partner concentration 30 nM)    MET
2  CGTCAAAGTTCAAGGTGACGTAACAGAAAGCAGC  PPARg:RXRa 90nM:30nM, anti-RXR (NR concentration 90 nM, RXRa partner concentration 30 nM)    MET

Can CCTTACGGGTCACGAGGTTATACCACGACGAGCG be said to have PBM binding z-score at or above 2?
MET

Also, AGAATGAGGTTATTAAGCTCAGGGAATTGCGGTC please.
NOT MET

Also, ACAGACAGGTGATGATGGTAACTCAGGCTATCAT please.
NOT MET

Also, ACTTACGGGTCCACGAGGTTATAGCACGCGTATA please.
NOT MET

Also, ATCGAAAGGTCGACGAGGTGAGTACACACCGTTT please.
MET
